experimental_system: T1, Bre1-LR (Bre1 residues 227–700, LBD and RING domains), 6× histidine tag (budding yeast, UniProt Q07457 227-700)
T1 construct: two Bre1 polypeptides form the dimeric coiled-coils of the LBD in the crystal structure; also called WT; source: E. coli BL21 Rosetta (DE3), purified (Ni-NTA, heparin, gel filtration)
T1 sequence (looked up): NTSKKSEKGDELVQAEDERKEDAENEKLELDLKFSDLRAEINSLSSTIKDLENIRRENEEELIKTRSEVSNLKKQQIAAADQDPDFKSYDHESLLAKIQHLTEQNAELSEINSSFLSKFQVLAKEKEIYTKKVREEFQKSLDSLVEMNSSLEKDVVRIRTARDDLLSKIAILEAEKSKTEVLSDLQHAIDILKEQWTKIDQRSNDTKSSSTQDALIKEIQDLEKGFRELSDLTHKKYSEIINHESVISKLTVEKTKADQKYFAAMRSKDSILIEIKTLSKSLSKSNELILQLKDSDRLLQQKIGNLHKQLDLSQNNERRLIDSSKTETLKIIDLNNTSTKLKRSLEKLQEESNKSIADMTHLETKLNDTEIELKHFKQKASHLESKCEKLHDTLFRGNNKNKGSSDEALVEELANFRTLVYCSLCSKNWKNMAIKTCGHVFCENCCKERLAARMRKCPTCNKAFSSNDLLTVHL
protocol_notes: SPR; Lge1-CT immobilised on a CM5 chip, Bre1-LR flown over; Biacore 8K, 25°C, 20 mM HEPES (pH 7.5), 200 mM sodium chloride, 0.02% Tween 20
experimental_parameters: both partners purified
endpoint_label: koff (s⁻¹)
Record the value in s⁻¹, omitting the unit from your answer.

Answered examples (2):
binder	result_value
Lge1-CT L320N (domain or fragment, budding yeast, UniProt Q02796 261-332, looked up, Lge1, budding yeast, residues 261-332; source: E. coli BL21 Rosetta (DE3): cleared cell extract on chitin resin (pull-down); purified (chitin, heparin, gel filtration) for ITC and SPR) KNVKKTNNTESECEKAREVFKESDSIDSALEELNLKINSNELELRLLNNQCDKHALNIQNTQEKLDSLLLMQ	0.00417
Lge1-CT L325N (domain or fragment, budding yeast, UniProt Q02796 261-332, looked up, Lge1, budding yeast, residues 261-332; source: E. coli BL21 Rosetta (DE3): cleared cell extract on chitin resin (pull-down); purified (chitin, heparin, gel filtration) for ITC and SPR) KNVKKTNNTESECEKAREVFKESDSIDSALEELNLKINSNELELRLLNNQCDKHALNIQLTQEKNDSLLLMQ	0.00328

**Q:** Which koff value is on record for Lge1-CT K313E/H314E (domain or fragment, budding yeast, UniProt Q02796 261-332, looked up, Lge1, budding yeast, residues 261-332; source: E. coli BL21 Rosetta (DE3): cleared cell extract on chitin resin (pull-down); purified (chitin, heparin, gel filtration) for ITC and SPR) KNVKKTNNTESECEKAREVFKESDSIDSALEELNLKINSNELELRLLNNQCDEEALNIQLTQEKLDSLLLMQ ?
**A:** 0.00947

**Q:** Given the entry Lge1-CT K324E (domain or fragment, budding yeast, UniProt Q02796 261-332, looked up, Lge1, budding yeast, residues 261-332; source: E. coli BL21 Rosetta (DE3): cleared cell extract on chitin resin (pull-down); purified (chitin, heparin, gel filtration) for ITC and SPR) KNVKKTNNTESECEKAREVFKESDSIDSALEELNLKINSNELELRLLNNQCDKHALNIQLTQEELDSLLLMQ , report its measured koff.
**A:** 0.00509

**Q:** Sample Lge1-CT L316N (domain or fragment, budding yeast, UniProt Q02796 261-332, looked up, Lge1, budding yeast, residues 261-332; source: E. coli BL21 Rosetta (DE3): cleared cell extract on chitin resin (pull-down); purified (chitin, heparin, gel filtration) for ITC and SPR) KNVKKTNNTESECEKAREVFKESDSIDSALEELNLKINSNELELRLLNNQCDKHANNIQLTQEKLDSLLLMQ — what was its koff?
**A:** 0.00527

**Q:** Given Lge1-CT I318D (domain or fragment, budding yeast, UniProt Q02796 261-332, looked up, Lge1, budding yeast, residues 261-332; source: E. coli BL21 Rosetta (DE3): cleared cell extract on chitin resin (pull-down); purified (chitin, heparin, gel filtration) for ITC and SPR) KNVKKTNNTESECEKAREVFKESDSIDSALEELNLKINSNELELRLLNNQCDKHALNDQLTQEKLDSLLLMQ , state its recorded koff.
**A:** 0.00155

Just for reference, paper PMC12802937 is where these values come from.
